System: NCI-H522 lung
Protocol notes: NCI-60 one-dose screen, 48 h (100 = growth as untreated, 0 = no growth, -100 = all killed)
Condition description: 10 µM unless noted
This is part of a sample that, as a whole, favours compounds with a hit. Of some 83,000 tested, about 20% had one in any assay.
Please mark y if the recorded growth is equal to or greater than 80%, and n if it falls below.

# Molecule, Group
records = [
    ("COc1ccc(-c2nc3sccn3c2-c2ccnc(S(C)(=O)=O)n2)cc1", "n"),
    ("O=C(/C=C/c1ccccc1Cl)c1ccc(O)cc1", "n"),
    ("CCC(C)CC(C)C(=O)c1c(O)ccn(O)c1=O (configuration not stated)", "n"),
    ("Cn1cc(-c2csc(-c3c[nH]c4ncccc34)n2)c2cc(F)cnc21", "y"),
    ("O=C1c2ccccc2C(=O)c2c1cccc2-n1nnc2ccccc21", "y"),
    ("Cc1cc2cn3c4cccnc4[nH]c(=O)c3c2cc1C", "n"),
    ("c1cnc2ccc3ncccc3c2c1", "y"),
    ("Cc1nc2cc(NC(=O)CN3CCN(CCN4C(=O)c5cccc6cccc(c56)C4=O)CC3)ccc2s1", "n"),
    ("C=C(C)[C@H]1CC/C(C)=C/CC[C@]2(C)O[C@H]2CC/C(COC(C)=O)=C\\C1=O", "y"),
    ("COc1ccc2[nH]c(-c3ccccc3)cc2c1", "n"),
    ("N#Cc1c(N2CCOCC2)nc2sc3cc(Cl)ccc3n2c1=N", "y"),
    ("Cc1c(C(N)=O)sc2nc(SCC(=O)Nc3ccc(Cl)cc3)n(-c3ccccc3)c(=O)c12", "y"),
    ("O=C(O)C(=O)O", "n"),
    ("CCS(=O)(=O)OCCCl", "n"),
    ("CCCCOc1ccc(C(C)(C)c2ccc(OCCCC)cc2)cc1", "y"),
    ("S=C(c1ccccc1)N1CCN(c2cccc(Cl)c2)CC1", "y"),
    ("COc1ccc(-c2cc(Cc3cccs3)c(=O)n(Cn3ccc4ccccc43)n2)cc1", "y"),
]

---

growth values, listed per item
System: SK-MEL-5 melanoma
Protocol notes: NCI-60 one-dose screen, 48 h (100 = growth as untreated, 0 = no growth, -100 = all killed)
Condition description: 10 µM unless noted
This is part of a sample that, as a whole, favours compounds with a hit. Of some 83,000 tested, about 20% had one in any assay.

# Compound, Readout units, growth
records = [
    ("N#CCCCCCn1c2ccccc2c2c3c(c4c5ccccc5[nH]c4c21)C(=O)N(O)C3=O", "%", -97),
    ("Cc1c(C(N)=O)sc2c1c(=O)n(Cc1ccccc1)c1nnc(S(=O)(=O)CC(=O)Nc3ccc(Cl)cc3)n21", "%", 55.2),
    ("COc1cc2c(c(OC)c1OC)-c1ccc(NN(C(=O)c3ccccc3)C(=O)c3ccccc3)c(=O)cc1[C@@H](NC(C)=O)CC2 (tested in a mixture with another compound)", "%", 20.2),
    ("[O-]/[N+](=C\\C=C\\c1ccccc1)c1ccccc1", "%", 102),
    ("C[n+]1ccc(Nc2ccc(NC(=O)c3ccc(Nc4cc[n+](C)c5ccc(N)cc45)cc3)cc2)cc1", "%", 90.4),
    ("COc1ccc(-c2nn(-c3ccccc3)cc2/C=C2\\SC(=S)N(CCc3ccc(O)cc3)C2=O)cc1", "%", 88.1),
    ("O=C(Nc1ccc(Cl)cc1)Nc1ccc(Nc2nncc3ccccc23)cc1", "%", 7.12),
    ("Oc1[nH]c2ccc(Cl)cc2c1/C=c1/ccc2c(c1)N=C(c1ccc(C(F)(F)F)cc1)N=2", "%", 63.4),
    ("Fc1ccc(-c2nnc(-c3c(-c4ccc(F)cc4)nc4ncccn34)o2)cc1", "%", 95.4),
]

Value source: PubChem BioAssay (NCI)
